meta.source: patent US9452990B2

test.system: human complement factor B (CVF-Bb complex) (Homo sapiens (Human))
test.protocol: Human Complement Factor B ELISA Assay
Assay type: biochemical
conditions: CVF-Bb complex 3 nM, 1 hour preincubation with compound at room temperature, human C3 substrate 1 μM, C3a quantified by ELISA; read-out: Factor B IC50
Procedure: Human Complement Factor B ELISA Assay CVF-Bb complex prepared from purified cobra venom factor (1 μM), recombinant human complement factor B (expressed in drosophila cells and purified using standard methods) and human complement factor D (expressed in E. Coli, refolded and purified using standard methods). […] The product of the reaction, C3a, was quantified by means of an enzyme-linked-immunosorbent assay. […]
Hi there, I'd appreciate the recorded log10(IC50) for every entry that follows.
Could you please treat all values as log10 of IC50 in µM?

query: Consider the compound shown here: COc1cc2c(N)nc(N3CCN(C(=O)C[C@@H]4CCCNC4)CC3)nc2c(F)c1OC What is its recorded log10(IC50)?
result: 0.59

query: For the compound shown here, COc1cc2c(N)nc(N3CCN(C(=O)C[C@@H](NCC4(C)COC4)c4ccc(C#N)cc4)CC3)nc2c(F)c1OC , give the reported log10(IC50).
result: -3.00

query: Would you mind telling me what log10(IC50) value was observed for COc1cc2c(N)nc(N3CCN(C(=O)C[C@@H](N)c4cccc(C(F)(F)F)c4)CC3)nc2c(F)c1OC ?
result: -0.59

query: Which value of log10(IC50) has been reported for COc1cc2c(N)nc(N3CCN(C(=O)C[C@@H]4CCN4)CC3)nc2c(F)c1OC in the records?
result: 0.63

query: Entry COc1cc2c(N)nc(N3CCN(C(=O)c4cc5c(OC)cccc5[nH]4)CC3)nc2c(F)c1OC has what log10(IC50)?
result: 0.98

query: Given the compound COc1cc2c(N)nc(N3CCN(C(=O)CC4NCc5ccccc54)CC3)nc2c(F)c1OC (centres unmarked) , what is its reported log10(IC50)?
result: -0.46

query: Value lookup for log10(IC50); key = COc1cc2c(N)nc(N3CCN(C(=O)C[C@@H]4CCCN4)C[C@@H]3C)nc2c(F)c1OC
result: -0.49

query: Given COc1cc2c(N)nc(N3CCN(C(=O)c4cc5cc(F)ccc5[nH]4)C[C@@H]3c3ccccc3)nc2c(F)c1OC , state its recorded log10(IC50).
result: -1.85

---

Kindly supply the reported IC50 values for the records listed here.
test.system: human complement factor B (CVF-Bb complex) (Homo sapiens (Human))
test.protocol: Human Complement Factor B ELISA Assay
Format: biochemical
Where a name gives a salt, the structure may show the parent alone.
Enter your answer as a number in nM; do not include the unit.

query: Value lookup for IC50; key = COc1cc2c(N)nc(N3CCN(C(=O)C[C@@H](N)c4ccc(C(F)F)cc4)CC3)nc2c(F)c1OC [Example 53, hydrochloride]
result: 50

query: Returns the measured IC50 for the input compound. Input: COc1cc2c(N)nc(N3CCN(C(=O)C[C@@H](N)c4ccc(Br)cc4)CC3)nc2c(F)c1OC [Example 49, hydrochloride]
result: 60

query: What does the record list as IC50 for COc1cc2c(N)nc(N3CCN(C(=O)C[C@@H](N)c4ccc(F)c(F)c4)CC3)nc2c(F)c1OC [Example 51, hydrochloride] ?
result: 180

query: # input compound: COc1cc2c(N)nc(N3CCN(C(=O)C[C@@H]4CCN4)C[C@@H]3c3ccccc3)nc2c(F)c1OC [Example 119, hydrochloride] ; wanted: its IC50
result: 610

query: # IC50 lookup, item COc1cc2c(N)nc(N3CCN(C(=O)C[C@@H](N)c4ccccc4)C[C@@H]3C)nc2c(F)c1OC [Example 57, hydrochloride]
result: 210

query: Given the compound COc1cc2c(N)nc(N3CCN(C(=O)C[C@@H](N)c4ccc(C(F)(F)F)cc4)C[C@@H]3C)nc2c(F)c1OC [Example 61, hydrochloride] , what is its reported IC50?
result: 40

query: Which IC50 is listed for COc1cc2c(N)nc(N3CCN(C(=O)C[C@@H](N)c4ccc(F)cc4F)CC3)nc2c(F)c1OC [Example 50, hydrochloride] ?
result: 450

query: Look at this compound and give its reported IC50. COc1cc2c(N)nc(N3CCN(C(=O)C[C@@H](N)c4ccccc4F)C[C@@H]3C)nc2c(F)c1OC [Example 59, hydrochloride]
result: 160

query: IC50 lookup needed for COc1cc2c(N)nc(N3CCN(C(=O)C[C@@H](N)c4ccc(C#N)cc4)C[C@@H]3C)nc2c(F)c1OC [Example 58, hydrochloride] , thanks.
result: 9

query: # query: IC50 of entry COc1cc2c(N)nc(N3CCN(C(=O)C[C@@H](N)CC(C)C)C[C@@H]3C)nc2c(F)c1OC [Example 56, hydrochloride]
result: 240

query: Entry under review: COc1cc2c(N)nc(N3CCN(C(=O)C[C@@H](N)c4ccc(F)cc4)C[C@@H]3c3ccccc3)nc2c(F)c1OC [Example 69, hydrochloride] . Reported IC50?
result: 7
